Listing of entries alongside the reported pEC50.
Tested on: Control DENV2-NGC EGFP-replicon cells passaged in DMSO
Test: Control DENV2-NGC EGFP-replicon cells passaged in DMSO
Format: cell-based
Details: Dengue virus, DENV2, 48 h; 2 days
Please report pEC50 as the negative decimal logarithm of the molar concentration, giving only the number.

COc1cc(OC)c(-c2ccc(C#CCO)s2)cc1C(=O)NS(=O)(=O)c1cccc2cccnc12 [Compound 29] : 5.45

Incoming: Name the reported pEC50 value associated with the molecule COc1cccc(S(=O)(=O)NC(=O)c2cc(-c3ccc(C#CCO)s3)c(OC)cc2OC)c1 [Compound 27]
Outgoing: 5.61

----------
Listing of entries alongside the reported IC50.
Biological target: DENV3 FL NS5 (Dengue virus type 3, UniProt Q6YMS4)
Construct: 100 nM DENV FL NS5 protein was added; made in house
Sequence (Q6YMS4 2491-3390): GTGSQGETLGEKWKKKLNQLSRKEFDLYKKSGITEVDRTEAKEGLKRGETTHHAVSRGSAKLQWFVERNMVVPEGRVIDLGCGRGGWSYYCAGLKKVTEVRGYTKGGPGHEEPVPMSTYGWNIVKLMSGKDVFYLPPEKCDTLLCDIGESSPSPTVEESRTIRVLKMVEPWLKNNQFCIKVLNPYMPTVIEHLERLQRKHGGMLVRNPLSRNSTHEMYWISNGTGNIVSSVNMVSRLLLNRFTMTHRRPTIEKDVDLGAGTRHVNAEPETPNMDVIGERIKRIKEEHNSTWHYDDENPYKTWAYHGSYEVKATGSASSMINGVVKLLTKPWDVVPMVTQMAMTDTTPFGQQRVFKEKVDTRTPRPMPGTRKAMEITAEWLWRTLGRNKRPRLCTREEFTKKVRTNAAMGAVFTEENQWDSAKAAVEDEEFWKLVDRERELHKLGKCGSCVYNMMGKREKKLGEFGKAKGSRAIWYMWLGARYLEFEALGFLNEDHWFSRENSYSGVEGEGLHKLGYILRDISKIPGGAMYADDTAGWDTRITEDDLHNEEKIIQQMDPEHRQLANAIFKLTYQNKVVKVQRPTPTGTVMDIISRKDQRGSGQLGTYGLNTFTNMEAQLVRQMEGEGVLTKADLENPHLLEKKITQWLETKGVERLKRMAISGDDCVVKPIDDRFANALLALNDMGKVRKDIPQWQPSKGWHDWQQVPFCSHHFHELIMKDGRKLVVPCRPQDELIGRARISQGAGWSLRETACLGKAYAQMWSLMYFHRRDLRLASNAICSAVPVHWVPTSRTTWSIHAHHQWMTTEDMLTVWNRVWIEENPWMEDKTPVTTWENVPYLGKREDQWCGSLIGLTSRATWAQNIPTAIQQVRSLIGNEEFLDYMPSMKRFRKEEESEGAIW
Assay: DENV3 FL NS5 de novo initiation FAPA assay
Type: biochemical
Details: one experiment; read-out: DENV FL NS5 de novo initiation FAPA, IC50, DENV3
Only the number, expressed in nM, is required.

Examples with answers:
COc1cc(OC)c(-c2ccc(C#CCO)s2)cc1C(=O)NS(=O)(=O)c1ccccc1 : 57
COc1cccc(S(=O)(=O)NC(=O)c2cc(-c3ccc(C#CCO)s3)c(OC)cc2C)c1 [Compound 26i] : 54
O=C(O)Cc1cc(CC(=O)O)cc(-c2ccc(Cl)s2)c1 : 10700
COc1ccc(CC(=O)O)cc1-c1ccccc1 : 796000

Turning to the following compound.
Incoming: Name the reported IC50 value associated with the compound "COc1cc(C)c(C(=O)NS(=O)(=O)c2ccccc2)cc1-c1ccc(C#CCO)s1"
Outgoing: 40

----------
Target: DENV4 FL NS5 (Dengue virus type 4, UniProt P09866)
Construct: 100 nM DENV FL NS5 protein was added; made in house
Sequence (P09866 2488-3387): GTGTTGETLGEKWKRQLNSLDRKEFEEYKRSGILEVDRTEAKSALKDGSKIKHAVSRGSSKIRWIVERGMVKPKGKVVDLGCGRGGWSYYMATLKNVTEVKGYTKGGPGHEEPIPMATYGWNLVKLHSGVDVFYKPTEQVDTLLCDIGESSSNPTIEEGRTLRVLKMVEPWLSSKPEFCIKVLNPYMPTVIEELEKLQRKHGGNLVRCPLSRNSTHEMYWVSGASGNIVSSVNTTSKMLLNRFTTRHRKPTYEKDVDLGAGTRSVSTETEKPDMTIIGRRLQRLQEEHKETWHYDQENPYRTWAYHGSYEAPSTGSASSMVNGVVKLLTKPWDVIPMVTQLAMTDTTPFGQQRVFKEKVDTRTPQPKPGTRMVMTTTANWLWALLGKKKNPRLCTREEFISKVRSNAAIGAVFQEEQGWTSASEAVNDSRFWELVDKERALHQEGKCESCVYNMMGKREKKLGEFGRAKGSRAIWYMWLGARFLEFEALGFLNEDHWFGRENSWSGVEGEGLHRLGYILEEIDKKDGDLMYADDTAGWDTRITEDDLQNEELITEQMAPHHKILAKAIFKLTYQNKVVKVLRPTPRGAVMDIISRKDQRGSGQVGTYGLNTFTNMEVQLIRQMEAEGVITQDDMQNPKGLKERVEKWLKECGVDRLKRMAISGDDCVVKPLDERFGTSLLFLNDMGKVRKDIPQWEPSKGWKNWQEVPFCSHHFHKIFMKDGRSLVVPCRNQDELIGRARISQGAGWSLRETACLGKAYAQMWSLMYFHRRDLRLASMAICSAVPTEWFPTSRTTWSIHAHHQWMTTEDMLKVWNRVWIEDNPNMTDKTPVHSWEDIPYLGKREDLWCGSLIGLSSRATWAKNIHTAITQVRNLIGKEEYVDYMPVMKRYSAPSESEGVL
Test: biochemical
Details: compound added to enzyme-dsRNA complex; read-out: de novo IC50; order of addition: [Enzyme + RNA+ATP+GTP] + compound
ENDPOINT NAME: IC50 (nM)
Only the number, expressed in nM, is required.

Incoming: Name the reported IC50 value associated with the compound Nc1nc2c(ncn2[C@@H]2O[C@H](COP(=O)(O)OP(=O)(O)OP(=O)(O)O)C[C@H]2O)c(=O)[nH]1 [3'dGTP, reference compound]
Outgoing: 740

----------
Target: DENV4 FL NS5 (Dengue virus type 4)
Construct: 100 nM DENV FL NS5 protein was added; made in house
Assay: biochemical
Details: compound added to pre-formed enzyme-ssRNA complex; read-out: de novo IC50; order of addition: [Enzyme + RNA] + compound
ENDPOINT NAME: pIC50
Please report pIC50 as the negative decimal logarithm of the molar concentration, giving only the number.

Incoming: Request: pIC50, test system DENV4 FL NS5 (Dengue virus type 4), entry Nc1nc2c(ncn2[C@@H]2O[C@H](COP(=O)(O)OP(=O)(O)OP(=O)(O)O)C[C@H]2O)c(=O)[nH]1 [3'dGTP, reference compound]
Outgoing: 6.36

----------
Biological target: DENV4 FL NS5 (Dengue virus type 4)
Construct: 100 nM DENV FL NS5 protein was added; made in house
Test: biochemical
Settings: representative dose-response curve; read-out: IC50, best-fit value of representative curve (Fig 1A in S1 Text)
Experimental: DENV1-4 FL NS5 dnI assays were performed as described previously. Briefly, compounds from 0–20 or -100 μM concentrations are two-fold serially diluted into 384-well black opaque plates (Corning Costar), after which 100 nM DENV FL NS5 protein was added and the plates incubated at RT for 20 min. […] 15 intestinal phosphatase (CIP), re- incubation at RT for 60 min and read on a Tecan Safire II 16 microplate reader. […]
Listing of entries alongside the reported IC50.
Only the number, expressed in nM, is required.

Examples with answers:
COc1cc(OC)c(-c2ccc(C#CCO)s2)cc1C(=O)NS(=O)(=O)c1ccccc1 : 115
COc1cc(C)c(C(=O)NS(=O)(=O)c2ccccc2)cc1-c1ccc(C#CCO)s1 : 281
COc1ccc(CC(=O)O)cc1-c1ccc(Cl)s1 : 30900

Incoming: Request: IC50, test system DENV4 FL NS5 (Dengue virus type 4), entry Nc1nc2c(ncn2[C@@H]2O[C@H](COP(=O)(O)OP(=O)(O)OP(=O)(O)O)C[C@H]2O)c(=O)[nH]1 [3'dGTP, reference compound]
Outgoing: 513

Incoming: Request: IC50, test system DENV4 FL NS5 (Dengue virus type 4), entry "COc1ccc(CC(=O)O)cc1-c1ccccc1"
Outgoing: 788000

----------
Tested on: DENV2-NGC replicon Wild Type
Test: Transient WT DENV2-NGC replicon in BHK-21 cells
Settings: Dengue virus, DENV2, BHK-21, 48 h, read-out: EC50, DENV2-NGC Replicon, Wild Type
Listing of entries alongside the reported pEC50.
Please report pEC50 as the negative decimal logarithm of the molar concentration, giving only the number.

COc1cccc(S(=O)(=O)NC(=O)c2cc(-c3ccc(C#CCO)s3)c(OC)cc2OC)c1 [Compound 27] : 5.11

Incoming: Name the reported pEC50 value associated with the compound COc1cc(OC)c(-c2ccc(C#CCO)s2)cc1C(=O)NS(=O)(=O)c1cccc2cccnc12 [Compound 29]
Outgoing: 5.17

----------
Biological target: DENV4 FL NS5 (Dengue virus type 4, UniProt P09866)
Construct: 100 nM DENV FL NS5 protein was added; made in house
Test: biochemical
Conditions: compound added to enzyme-dsRNA complex; read-out: de novo IC50; order of addition: [Enzyme + RNA+ ATP+GTP+ATTO-CTP] + compound
ENDPOINT NAME: IC50 (µM)
Only the number, expressed in µM, is required.

Incoming: Name the reported IC50 value associated with the compound Nc1nc2c(ncn2[C@@H]2O[C@H](COP(=O)(O)OP(=O)(O)OP(=O)(O)O)C[C@H]2O)c(=O)[nH]1 [3'dGTP, reference compound]
Outgoing: 0.71

----------
Experiment: in vitro
Type: cell-based
Conditions: human, HuH-7 (DENV2 replicon cells); 48 hr; ATP levels
Listing of entries alongside the reported CC50.

Examples with answers:
Nc1nc2c(ncn2[C@@H]2O[C@H](COP(=O)(O)OP(=O)(O)OP(=O)(O)O)C[C@H]2O)c(=O)[nH]1 [3'dGTP, reference compound] : > 100 µM
COc1cc(OC)c(-c2ccc(C#CCO)s2)cc1C(=O)NS(=O)(=O)c1ccccc1 : > 100 µM
COc1cccc(S(=O)(=O)NC(=O)c2cc(-c3ccc(C#CCO)s3)c(OC)cc2C)c1 [Compound 26i] : > 50 µM
COc1ccc(CC(=O)O)cc1-c1ccc(Cl)s1 : > 100 µM
COc1cc(OC)c(-c2ccc(C#CCO)s2)cc1C(=O)NS(=O)(=O)c1cccc2cccnc12 : > 50 µM

Turning to the following molecule.
Incoming: Name the reported CC50 value associated with the molecule "COc1cccc(S(=O)(=O)NC(=O)c2cc(-c3ccc(C#CCO)s3)c(OC)cc2OC)c1"
Outgoing: > 100 µM

----------
Molecular target: DENV4 FL NS5 (Dengue virus type 4)
Construct: 100 nM DENV FL NS5 protein was added; made in house
Assay: biochemical
Conditions: Enzyme + compound; averaged from >3 experiments; read-out: Elongation IC50
ENDPOINT NAME: IC50 (nM)
Only the number, expressed in nM, is required.

Incoming: Name the reported IC50 value associated with the molecule Nc1nc2c(ncn2[C@@H]2O[C@H](COP(=O)(O)OP(=O)(O)OP(=O)(O)O)C[C@H]2O)c(=O)[nH]1 [3'dGTP, reference compound]
Outgoing: 430

----------
Test system: DENV1, strain MY97-10245
Experiment: DENV1 infected A549 cells, high content imaging (HCI)
Format: cell-based
Details: 48 hr
ENDPOINT NAME: pEC50
Please report pEC50 as the negative decimal logarithm of the molar concentration, giving only the number.

Incoming: Name the reported pEC50 value associated with the molecule COc1cccc(S(=O)(=O)NC(=O)c2cc(-c3ccc(C#CCO)s3)c(OC)cc2C)c1 [Compound 26i]
Outgoing: 4.82

----------
Tested on: DENV2-NGC replicon L512V/E802D
Format: cell-based
Conditions: electroporated BHK-21; 2 days
ENDPOINT NAME: EC50 (µM)
Only the number, expressed in µM, is required.

COc1cc(OC)c(-c2ccc(C#CCO)s2)cc1C(=O)NS(=O)(=O)c1cccc2cccnc12 : 38.8

Incoming: Name the reported EC50 value associated with the compound "COc1cccc(S(=O)(=O)NC(=O)c2cc(-c3ccc(C#CCO)s3)c(OC)cc2OC)c1"
Outgoing: 28.4

----------
Listing of entries alongside the reported CC50.
Assay: in vitro
Type: cell-based
Conditions: human; 4–5 days; read-out: CC50, HepG2

COc1cccc(S(=O)(=O)NC(=O)c2cc(-c3ccc(C#CCO)s3)c(OC)cc2OC)c1 : > 50 µM

Incoming: Name the reported CC50 value associated with the compound "COc1cc(OC)c(-c2ccc(C#CCO)s2)cc1C(=O)NS(=O)(=O)c1cccc2cccnc12"
Outgoing: > 50 µM
